- System: A498
- Method description: Growth inhibition of human A498 cells assessed as cell growth at 10 uM after 48 hrs by sulforhodamine B assay
- Format: functional
- Recorded conditions: A498, 48 h, read-out: Activity
Measure name: growth at 10 µM (%)

input_smiles=CC(C)=CCC/C(C)=C/CC/C(C)=C/CC[C@]1(C)CCc2c3c(c(C)c(C)c2O1)OCN(CCCCCO)C3 units_text=% numeric_value=97.4
input_smiles=CC(C)=CCC/C(C)=C/CC/C(C)=C/CC[C@]1(C)CCc2c3c(cc(C)c2O1)OCN(CCCCO)C3 units_text=% numeric_value=103
input_smiles=CC(C)=CCC/C(C)=C/CC/C(C)=C/CC[C@]1(C)CCc2c3c(c(C)c(C)c2O1)OCN(CCCCCCCCO)C3 units_text=% numeric_value=117
input_smiles=CC(C)=CCC/C(C)=C/CC/C(C)=C/CC[C@]1(C)CCc2c3c(cc(C)c2O1)OCN(C1CCN(Cc2ccccc2)CC1)C3 units_text=% numeric_value=63.2
input_smiles=CC(C)=CCC/C(C)=C/CC/C(C)=C/CC[C@]1(C)CCc2c3c(cc(C)c2O1)OCN(CCCCCO)C3 units_text=% numeric_value=89.7
input_smiles=COc1ccc(CCN2COc3cc(C)c4c(c3C2)CC[C@@](C)(CC/C=C(\C)CC/C=C(\C)CCC=C(C)C)O4)cc1OC units_text=% numeric_value=83.2
input_smiles=CC(C)=CCC/C(C)=C/CC/C(C)=C/CC[C@]1(C)CCc2c3c(cc(C)c2O1)OCN(CCc1ccc(O)cc1)C3 units_text=% numeric_value=100
input_smiles=CC(C)=CCC/C(C)=C/CC/C(C)=C/CC[C@]1(C)CCc2c(CNCCc3ccc(O)cc3)c(O)c(C)c(C)c2O1 units_text=% numeric_value=104

###

- Tested on: SW-620
- Method description: Growth inhibition of human SW620 cells assessed as cell growth at 10 uM after 48 hrs by sulforhodamine B assay
- Assay type: functional
- Recorded conditions: SW-620, 48 h, read-out: Activity
Measure name: growth at 10 µM (%)

compound="CC(C)=CCC/C(C)=C/CC/C(C)=C/CC[C@]1(C)CCc2cc(O)c(C)c(C)c2O1 [GAMMA-TOCOTRIENOL]" measure_name="growth at 10 µM" numeric_value=110
compound=COc1ccc(CCN2COc3cc(C)c4c(c3C2)CC[C@@](C)(CC/C=C(\C)CC/C=C(\C)CCC=C(C)C)O4)cc1OC measure_name="growth at 10 µM" numeric_value=-98.1
compound=CC(C)=CCC/C(C)=C/CC/C(C)=C/CC[C@]1(C)CCc2c3c(cc(C)c2O1)OCN(CCCCCCCCCCCCO)C3 measure_name="growth at 10 µM" numeric_value=95.2
compound=CC(C)=CCC/C(C)=C/CC/C(C)=C/CC[C@]1(C)CCc2c3c(c(C)c(C)c2O1)OCN(CCCCCCCCO)C3 measure_name="growth at 10 µM" numeric_value=10.1
compound=CC(C)=CCC/C(C)=C/CC/C(C)=C/CC[C@]1(C)CCc2c3c(cc(C)c2O1)OCN(CCCCCO)C3 measure_name="growth at 10 µM" numeric_value=-83.7
compound=CC(C)=CCC/C(C)=C/CC/C(C)=C/CC[C@]1(C)CCc2c3c(c(C)c(C)c2O1)OCN(CCCCCO)C3 measure_name="growth at 10 µM" numeric_value=-18.6
compound=COc1ccc(CCNCc2c(O)c(C)c(C)c3c2CC[C@@](C)(CC/C=C(\C)CC/C=C(\C)CCC=C(C)C)O3)cc1OC measure_name="growth at 10 µM" numeric_value=47.2
compound=CC(C)=CCC/C(C)=C/CC/C(C)=C/CC[C@]1(C)CCc2c3c(cc(C)c2O1)OCN(CCCCO)C3 measure_name="growth at 10 µM" numeric_value=-79.7
compound=CC(C)=CCC/C(C)=C/CC/C(C)=C/CC[C@]1(C)CCc2c3c(cc(C)c2O1)OCN(CCCO)C3 measure_name="growth at 10 µM" numeric_value=-92.1
compound=CC(C)=CCC/C(C)=C/CC/C(C)=C/CC[C@]1(C)CCc2c3c(cc(C)c2O1)OCN(CCCCCCCCCCO)C3 measure_name="growth at 10 µM" numeric_value=104
